tested on: HCT-15 cells; assay: SRB cytotoxicity assay in HCT-15 cells transfected with ABCB1 or mock siRNA; format: cell-based, human; conditions: Homo sapiens, HCT-15, 96 h, read-out: IC50 (μM) siRNA
experimental.readout: IC50 (µM)
Enter your answer as a number in µM; do not include the unit.

So what's the measured IC50 for this one? C(=N\NC1=NCCN1)/c1c2ccccc2c(/C=N/NC2=NCCN2)c2ccccc12 [Bisantrene]
5.47

----------
Tested on: SK-MEL-28 cells
Assay: SRB cytotoxicity assay in SK-MEL-28 cells transfected with ABCB5 or mock siRNA
Type: cell-based, human
Settings: Homo sapiens, 96 h, mock siRNA, 4 days drug, SRB, read-out: IC50 (μM) Mock
Experimental: Human cancer cells were transfected with ABCB1, ABCB5 or mock siRNA. Drug activity was measured with the SRB assay. […] Results represent the mean of two or mean±SD of at least three independent experiments. […] Cytotoxicity assay. […] After air-drying and re-solubilization of the protein-bound dye in 10 mM Tris-HCl (pH 8.0), absorbance was read by a micro-plate reader at 570 nm. To determine the IC50 values, the absorbance of control cells without drug was set at 1. […]
experimental.readout: IC50 (µM)
Number in µM, nothing else.

Give its IC50 value. Item: `CC[C@@]1(O)C(=O)OCc2c1cc1n(c2=O)Cc2cc3ccccc3nc2-1`
0.13

And the next one, `O=c1[nH]cc(F)c(=O)[nH]1` ?
12.4

----------
system: NCI/ADR-RES cells; test: SRB cytotoxicity assay in NCI/ADR-RES cells transfected with ABCB1 or mock siRNA; assay type: cell-based, human; details: Homo sapiens, NCI/ADR-RES, 96 h, read-out: IC50 (μM) siRNA
experimental.readout: IC50 (µM)
Response body: numeric value in µM, unit text excluded.

For the compound shown here, C(=N\NC1=NCCN1)/c1c2ccccc2c(/C=N/NC2=NCCN2)c2ccccc12 [Bisantrene] , give the reported IC50.
23.7

----------
tested on: HCT-15 cells; test: SRB cytotoxicity assay in HCT-15 cells transfected with ABCB1 or mock siRNA; assay type: cell-based, human; conditions: Homo sapiens, HCT-15, 96 h, read-out: IC50 (μM) Mock
experimental.readout: IC50

Request the reported IC50 associated with `C(=N\NC1=NCCN1)/c1c2ccccc2c(/C=N/NC2=NCCN2)c2ccccc12`
7.63 µM

----------
tested on: NCI/ADR-RES cells; assay: SRB cytotoxicity assay in NCI/ADR-RES cells transfected with ABCB1 or mock siRNA; format: cell-based, human; conditions: Homo sapiens, NCI/ADR-RES, 96 h, read-out: IC50 (μM) Mock
experimental.readout: IC50

Consider the compound `C(=N\NC1=NCCN1)/c1c2ccccc2c(/C=N/NC2=NCCN2)c2ccccc12` and give its measured IC50.
> 100 µM
